TARGET: Estrogen receptor beta (Homo sapiens, UniProt Q92731)
Sequence (Q92731 whole entry, the tested form may be a part): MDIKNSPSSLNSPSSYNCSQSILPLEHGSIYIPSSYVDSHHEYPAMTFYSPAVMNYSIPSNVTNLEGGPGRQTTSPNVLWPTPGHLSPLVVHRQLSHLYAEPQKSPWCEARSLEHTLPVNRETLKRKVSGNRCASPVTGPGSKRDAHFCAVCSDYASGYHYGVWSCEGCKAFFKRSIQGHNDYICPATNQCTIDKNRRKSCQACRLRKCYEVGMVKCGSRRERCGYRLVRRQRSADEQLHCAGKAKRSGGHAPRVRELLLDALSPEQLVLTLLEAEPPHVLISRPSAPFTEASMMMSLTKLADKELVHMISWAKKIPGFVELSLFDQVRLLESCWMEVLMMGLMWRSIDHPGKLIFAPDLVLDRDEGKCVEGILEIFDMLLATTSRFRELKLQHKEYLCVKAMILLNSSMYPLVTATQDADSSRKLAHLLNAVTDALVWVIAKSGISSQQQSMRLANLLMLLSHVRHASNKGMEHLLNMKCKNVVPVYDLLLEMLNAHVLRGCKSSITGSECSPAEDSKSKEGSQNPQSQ
ASSAY_METHOD_TEXT: Agonist activity at human Gal4-fused ER-beta expressed in HEK293 cells at 10 uM by luciferase reporter gene assay relative to 17beta-estradiol
Type: cell-based
Calls of active or inactive are those of the source. The rule behind the calls is not given here.
ASSAY_ENDPOINT: Activity

SMILES_STRUCTURE	Activity
CC[Si](CC)(c1ccc(OS(N)(=O)=O)c(C)c1)c1ccc(OS(N)(=O)=O)c(C)c1	inactive
CCC(CC)(c1ccc(O)cc1)c1ccc(O)cc1	9.3%
CCCC(CCC)(c1ccc(O)c(C)c1)c1ccc(O)c(C)c1	6.1%
NS(=O)(=O)Oc1ccc(Sc2ccc(OS(N)(=O)=O)cc2)cc1	82.8%
CC(C)(c1ccc(OS(N)(=O)=O)cc1)c1ccc(OS(N)(=O)=O)cc1	inactive

Problem: # Activity lookup, item CCC(CC)(c1ccc(OS(N)(=O)=O)cc1)c1ccc(OS(N)(=O)=O)cc1
Solution: inactive

###

TARGET: Steryl-sulfatase (Homo sapiens) (UniProt P08842)
ASSAY_METHOD_TEXT: Inhibition of steroid sulfatase in human MCF7 cells assessed as conversion of [3H]E1S to [3H]E1 and [3H]E2 at 1 uM after 5 hrs by liquid scintillation counting
Type: cell-based
Below, each of the molecules is paired with its reported inhibition value.
State just the number; it will be interpreted in %.

These recorded examples may help you get a feel for the data.
SMILES_STRUCTURE	UNIT	inhibition
C[Si](C)(c1ccc(O)cc1)c1ccc(OS(N)(=O)=O)cc1	%	76.4
CCCCC(CCCC)(c1ccc(OS(N)(=O)=O)c(C)c1)c1ccc(OS(N)(=O)=O)c(C)c1	%	28

Problem: # inhibition lookup, item CCCC[Si](CCCC)(c1ccc(OS(N)(=O)=O)c(C)c1)c1ccc(OS(N)(=O)=O)c(C)c1
Solution: 16.4

###

TARGET: Estrogen receptor (Homo sapiens)
ASSAY_METHOD_TEXT: Antagonist activity at human Gal4-fused ER-alpha expressed in HEK293 cells assessed as inhibition of 17beta-estradiol-induced effect at 3 uM by luciferase reporter gene assay
Format: cell-based
ASSAY_ENDPOINT: inhibition
Value and unit, in that order.

These recorded examples may help you get a feel for the data.
SMILES_STRUCTURE	inhibition
CCCCC(CCCC)(c1ccc(OS(N)(=O)=O)c(C)c1)c1ccc(OS(N)(=O)=O)c(C)c1	42.5%
CCCC[Si](CCCC)(c1ccc(OS(N)(=O)=O)c(C)c1)c1ccc(OS(N)(=O)=O)c(C)c1	16.4%

Problem: // map CCC(CC)(c1ccc(OS(N)(=O)=O)c(C)c1)c1ccc(OS(N)(=O)=O)c(C)c1 to recorded inhibition (system: Estrogen receptor (Homo sapiens))
Solution: 36.7%

###

TARGET: Steryl-sulfatase (Homo sapiens)
Sequence (whole entry): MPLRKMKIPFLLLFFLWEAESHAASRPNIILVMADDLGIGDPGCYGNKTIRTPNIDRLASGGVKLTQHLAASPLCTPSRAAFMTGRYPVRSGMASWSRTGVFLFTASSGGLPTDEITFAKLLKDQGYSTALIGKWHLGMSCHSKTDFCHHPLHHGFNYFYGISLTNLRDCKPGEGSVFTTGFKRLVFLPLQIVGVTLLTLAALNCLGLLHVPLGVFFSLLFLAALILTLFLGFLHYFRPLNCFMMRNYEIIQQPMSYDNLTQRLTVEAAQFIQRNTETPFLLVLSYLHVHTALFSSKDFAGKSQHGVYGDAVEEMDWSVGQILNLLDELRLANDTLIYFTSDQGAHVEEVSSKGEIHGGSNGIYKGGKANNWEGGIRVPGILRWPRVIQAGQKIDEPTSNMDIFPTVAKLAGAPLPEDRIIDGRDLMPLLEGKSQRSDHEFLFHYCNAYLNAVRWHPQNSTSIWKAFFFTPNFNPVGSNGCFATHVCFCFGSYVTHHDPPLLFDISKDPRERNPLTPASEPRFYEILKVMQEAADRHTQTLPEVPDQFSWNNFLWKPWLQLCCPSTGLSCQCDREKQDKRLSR
ASSAY_METHOD_TEXT: Inhibition of steroid sulfatase in human MCF7 cells assessed as conversion of [3H]E1S to [3H]E1 and [3H]E2 at 1 uM after 5 hrs by liquid scintillation counting
Type: cell-based
Below, each of the molecules is paired with its reported inhibition value.
State just the number; it will be interpreted in %.

These recorded examples may help you get a feel for the data.
SMILES_STRUCTURE	inhibition (%)
CC[Si](CC)(c1ccc(OS(N)(=O)=O)cc1)c1ccc(OS(N)(=O)=O)cc1	96.4
C[Si](C)(c1ccc(OS(N)(=O)=O)cc1)c1ccc(OS(N)(=O)=O)cc1	81.9

Okay, next one:
Problem: // map NS(=O)(=O)Oc1ccc(Cc2ccc(OS(N)(=O)=O)cc2)cc1 to recorded inhibition (system: Steryl-sulfatase (Homo sapiens))
Solution: 50.1

###

TARGET: Estrogen receptor beta (Homo sapiens, UniProt Q92731)
ASSAY_METHOD_TEXT: Agonist activity at human Gal4-fused ER-beta expressed in HEK293 cells at 10 uM by luciferase reporter gene assay relative to 17beta-estradiol
Assay type: cell-based
Below, each of the molecules is paired with its reported Activity value.

These recorded examples may help you get a feel for the data.
SMILES_STRUCTURE	Activity
CCC[Si](CCC)(c1ccc(O)c(C)c1)c1ccc(O)c(C)c1	4.9%
C[Si](C)(c1ccc(OS(N)(=O)=O)cc1)c1ccc(OS(N)(=O)=O)cc1	16.7%
CC[Si](CC)(c1ccc(OS(N)(=O)=O)cc1)c1ccc(OS(N)(=O)=O)cc1	1.1%

Okay, next one:
Problem: # Activity lookup, item CC[Si](CC)(c1ccc(O)cc1)c1ccc(O)cc1
Solution: 11.9%

###

TARGET: Estrogen receptor (Homo sapiens)
Sequence (whole entry): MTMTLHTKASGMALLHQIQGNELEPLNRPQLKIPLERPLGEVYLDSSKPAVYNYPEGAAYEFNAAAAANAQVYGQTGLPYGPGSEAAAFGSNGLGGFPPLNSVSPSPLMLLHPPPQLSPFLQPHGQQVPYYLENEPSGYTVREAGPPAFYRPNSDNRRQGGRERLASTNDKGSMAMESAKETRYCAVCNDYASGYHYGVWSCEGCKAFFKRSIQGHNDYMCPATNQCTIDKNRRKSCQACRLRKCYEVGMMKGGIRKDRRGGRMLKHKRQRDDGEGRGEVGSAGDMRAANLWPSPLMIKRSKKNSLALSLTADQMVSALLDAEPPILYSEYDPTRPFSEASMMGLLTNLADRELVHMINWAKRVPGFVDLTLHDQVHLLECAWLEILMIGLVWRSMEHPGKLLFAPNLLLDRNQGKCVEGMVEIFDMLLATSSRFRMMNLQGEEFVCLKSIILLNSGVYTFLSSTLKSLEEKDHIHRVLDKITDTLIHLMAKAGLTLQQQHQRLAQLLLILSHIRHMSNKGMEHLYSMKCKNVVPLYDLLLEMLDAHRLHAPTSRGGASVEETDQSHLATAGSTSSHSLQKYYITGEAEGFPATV
ASSAY_METHOD_TEXT: Antagonist activity at human Gal4-fused ER-alpha expressed in HEK293 cells assessed as inhibition of 17beta-estradiol-induced effect at 3 uM by luciferase reporter gene assay
Type: cell-based
Below, each of the compounds is paired with its reported inhibition value.

These recorded examples may help you get a feel for the data.
COMPOUND	RECORDED_MEASUREMENT
CC[Si](CC)(c1ccc(OS(N)(=O)=O)cc1)c1ccc(OS(N)(=O)=O)cc1	100%
CCC[Si](CCC)(c1ccc(OS(N)(=O)=O)c(C)c1)c1ccc(OS(N)(=O)=O)c(C)c1	87.1%
Oc1ccc(Cc2ccc(O)cc2)cc1	22.6%
C[Si](C)(c1ccc(O)cc1)c1ccc(O)cc1	50.9%
CC[Si](CC)(c1ccc(OS(N)(=O)=O)c(C)c1)c1ccc(OS(N)(=O)=O)c(C)c1	94.8%
CCC(CC)(c1ccc(OS(N)(=O)=O)cc1)c1ccc(OS(N)(=O)=O)cc1	53.2%
CC(C)(c1ccc(OS(N)(=O)=O)cc1)c1ccc(OS(N)(=O)=O)cc1	6.63%
CC(C)(c1ccc(O)cc1)c1ccc(O)cc1 [BISPHENOL A]	36.1%

Okay, next one:
Problem: # inhibition lookup, item CCCC(CCC)(c1ccc(OS(N)(=O)=O)c(C)c1)c1ccc(OS(N)(=O)=O)c(C)c1
Solution: 54.9%

###

Below, each of the compounds is paired with its reported IC50 value.
TARGET: Estrogen receptor (Homo sapiens, UniProt P03372)
ASSAY_METHOD_TEXT: Antagonist activity at human Gal4-fused ER-alpha expressed in HEK293 cells assessed as inhibition of 17beta-estradiol-induced effect by luciferase reporter gene assay
State just the number; it will be interpreted in nM.

These recorded examples may help you get a feel for the data.
SMILES_STRUCTURE	IC50, nM
CCC[Si](CCC)(c1ccc(O)c(C)c1)c1ccc(O)c(C)c1	26.2
CCC(CC)(c1ccc(O)c(C)c1)c1ccc(O)c(C)c1	3.53

Problem: // map CCC(CC)(c1ccc(O)cc1)c1ccc(O)cc1 to recorded IC50 (system: Estrogen receptor (Homo sapiens, UniProt P03372))
Solution: 118

Problem: // map CC[Si](CC)(c1ccc(O)cc1)c1ccc(O)cc1 to recorded IC50 (system: Estrogen receptor (Homo sapiens, UniProt P03372))
Solution: 115

Problem: // map CC[Si](CC)(c1ccc(O)c(C)c1)c1ccc(O)c(C)c1 to recorded IC50 (system: Estrogen receptor (Homo sapiens, UniProt P03372))
Solution: 29.7
